target: GSK3β (Homo sapiens (Human)); assay: biochemical
pIC50: −log10 of the molar value.
property-label: pIC50

Known pIC50 results, listed for orientation:
> print(dat)
                                   molecule  experimental.value
1  Cc1[nH]nc2c1[C@@H](c1ccccc1C(F)(F)F)C1=C(CC(C)(C)CC1=O)N2        4.52 to 5.30
2  Cc1[nH]nc2c1C(c1ccsc1)C1=C(CC(C)(C)CC1=O)N2 (centres unmarked)        5.30 to 6.00
3  Cc1[nH]nc2c1C(c1ccc(Cl)s1)C1=C(CC(C)(C)CC1=O)N2 (centres unmarked)        5.30 to 6.00
4  Cc1[nH]nc2c1C(c1ccccc1C(F)(F)F)C1=C(CC(C)(C)CC1=O)N2 (racemic)              > 7.00
5  Cc1[nH]nc2c1C(c1cccc(Cl)c1)C1=C(CC(C)(C)CC1=O)N2 (centres unmarked)        6.00 to 7.00

Problem: State the measured pIC50 (GSK3β (Homo sapiens (Human))) of Cc1[nH]nc2c1C(c1ccccc1Cl)C1=C(CC(C)(C)CC1=O)N2 (centres unmarked)
Solution: 6.00 to 7.00

Problem: State the measured pIC50 (GSK3β (Homo sapiens (Human))) of Cc1[nH]nc2c1[C@H](c1ccccc1C(F)(F)F)C1=C(CC(C)(C)CC1=O)N2 (racemic)
Solution: > 7.00

Problem: State the measured pIC50 (GSK3β (Homo sapiens (Human))) of "Cc1[nH]nc2c1[C@H](c1cccs1)C1=C(CC(C)(C)CC1=O)N2"
Solution: 5.30 to 6.00

* * *

target: GSK3β (Homo sapiens (Human)); assay: biochemical; conditions: Target IC50 (nM), GSK3β
property-label: IC50 (nM)
I only need the number, in nM, no unit after it.

Problem: Dear colleague, please send me the reported IC50 for "COc1ccccc1[C@@H]1C2=C(CC(C)(C)CC2=O)Nc2n[nH]c(C(F)(F)F)c21" when you can.
Solution: 24

* * *

target: GSK3β (Homo sapiens (Human), UniProt P49841); assay: biochemical
Sequence (P49841 whole entry): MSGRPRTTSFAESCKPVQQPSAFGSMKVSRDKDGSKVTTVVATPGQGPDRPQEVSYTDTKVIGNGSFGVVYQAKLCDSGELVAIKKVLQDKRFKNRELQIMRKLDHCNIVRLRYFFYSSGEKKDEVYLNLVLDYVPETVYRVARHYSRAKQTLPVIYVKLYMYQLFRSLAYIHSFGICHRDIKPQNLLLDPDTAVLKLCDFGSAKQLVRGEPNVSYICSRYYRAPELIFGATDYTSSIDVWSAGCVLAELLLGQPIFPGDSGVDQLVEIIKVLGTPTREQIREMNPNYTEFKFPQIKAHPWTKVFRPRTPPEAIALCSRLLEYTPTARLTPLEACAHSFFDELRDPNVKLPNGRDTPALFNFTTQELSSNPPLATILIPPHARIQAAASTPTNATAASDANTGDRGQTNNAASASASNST
pIC50: −log10 of the molar value.
Reported pIC50 by item:

Problem: Dear colleague, please send me the reported pIC50 for Cc1[nH]nc2c1C(c1cccc(C(F)(F)F)c1)C1=C(CC(C)(C)CC1=O)N2 (centres unmarked) [Compound 30] when you can.
Solution: 6.00 to 7.00

* * *

Reported IC50 by item:
target: GSK3β (Homo sapiens (Human), UniProt P49841); experiment: biochemical

Known IC50 results, listed for orientation:
> print(dat)
                                   compound                            assayed.system  experimental.value
1  Cc1[nH]nc2c1[C@@H](c1ccccc1Br)C1=C(CC(C)(C)CC1=O)N2 [Compound 81]  GSK3β (Homo sapiens (Human), UniProt P49841)     1000 to 5000 nM
2  CCC1(c2ccccc2)C2=C(CC(C)(C)CC2=O)Nc2n[nH]c(C)c21 (racemic) [Compound 89]  GSK3β (Homo sapiens (Human), UniProt P49841)      101 to 1000 nM
3  CC1(C)CC(=O)C2=C(C1)Nc1n[nH]c(C3CC3)c1C2(C)c1ccccc1F (stereo not shown) [Compound 116]  GSK3β (Homo sapiens (Human), UniProt P49841)            < 100 nM
4  CC1(C)CC(=O)C2=C(C1)Nc1n[nH]c(C(F)(F)F)c1C2(C)c1ccccc1 (racemic) [Compound 71]  GSK3β (Homo sapiens (Human), UniProt P49841)     1000 to 5000 nM
5  CC1(C)CC(=O)C2=C(C1)Nc1n[nH]c(-c3ccccc3)c1C2(C)c1ccccc1 (stereo not shown) [Compound 121]  GSK3β (Homo sapiens (Human), UniProt P49841)      101 to 1000 nM
6  CC1(C)CC(=O)C2=C(C1)Nc1n[nH]c(Cl)c1C2(C)c1ccccc1 (stereo not shown) [Compound 110]  GSK3β (Homo sapiens (Human), UniProt P49841)            < 100 nM

Problem: Dear colleague, please send me the reported IC50 for CC1(C)CC(=O)C2=C(C1)Nc1n[nH]c(Br)c1C2(C)c1ccccc1 (stereo not shown) [Compound 111] when you can.
Solution: < 100 nM

Problem: Dear colleague, please send me the reported IC50 for Cc1[nH]nc2c1C(c1ccc(C#N)cc1)C1=C(CC(C)(C)CC1=O)N2 (stereo not shown) [Compound 34] when you can.
Solution: 5000 to 30000 nM

Problem: Dear colleague, please send me the reported IC50 for Cc1[nH]nc2c1[C@](C)(c1cccc(C#N)c1)C1=C(CC(C)(C)CC1=O)N2 [Compound 96] when you can.
Solution: 101 to 1000 nM

Problem: Dear colleague, please send me the reported IC50 for Cc1[nH]nc2c1C(c1cccc(F)c1)C1=C(CC(C)(C)CC1=O)N2 (stereo not shown) [Compound 11] when you can.
Solution: 101 to 1000 nM
